tested on: S. pneumoniae ATCC 49619; assay: Minimal inhibitory concentration (MIC) by broth microdilution (CLSI M7-A7); type: cell-based, Streptococcus pneumoniae; conditions: Streptococcus pneumoniae, ATCC49619; cation-adjusted Mueller Hinton Broth supplemented with 3% (v/v) lysed horse blood; microdilution method
measurement type: MIC (µg/mL)
Report only the number, with the unit µg/mL understood.

Inquiry: Item under review: CCNC(=O)Nc1cc2c(-c3ccnc(CCCO)c3)ccc(CNC(=O)OC)c2cn1 [Example 192] . Reported MIC?
Reply text: 2

Inquiry: Again, but for CCNC(=O)Nc1cc2cccc(CNC(=O)OCc3cncn3C)c2cn1.Cl [Example 38]
Reply text: 8

Inquiry: Moving on to C#CCOC(=O)NCc1cccc2cc(NC(=O)NCC)ncc12.Cl [Example 31]
Reply text: 2

Inquiry: CCNC(=O)Nc1cc2c(Cl)ccc(CNC(=O)OCCCN3CCOCC3)c2cn1 [Example 148] ?
Reply text: 4

Inquiry: Another compound to look at: CCNC(=O)Nc1cc2cccc(CNC(=O)CC#N)c2cn1 [Example 5]
Reply text: 4

* * *

Provide the reported MIC of each item.
test system: S. pneumoniae ATCC 49619; assay: Minimal inhibitory concentration (MIC) by broth microdilution (CLSI M7-A7); type: cell-based, Streptococcus pneumoniae; details: Streptococcus pneumoniae, ATCC49619; cation-adjusted Mueller Hinton Broth supplemented with 3% (v/v) lysed horse blood; microdilution method
Reply with just the number (in µg/mL).

Inquiry: What does the data say about its MIC? Entry: C#CCCC(=O)NCc1ccc(-c2ccncc2)c2cc(NC(=O)NCC)ncc12
Reply text: 0.25

Inquiry: Moving on to CCNC(=O)Nc1cc2c(-c3ccnnc3)ccc(CNC(=O)OC(C)(C)C)c2cn1
Reply text: 0.5

Inquiry: How about this compound: CCNC(=O)Nc1cc2c(-c3ccncc3)ccc(CNC(=O)OCC3CC3)c2cn1.Cl
Reply text: 0.5

Inquiry: Continue with CCNC(=O)Nc1cc2c(-c3ccncc3)ccc(CNC(=O)CN(C)C(=O)OC(C)(C)C)c2cn1
Reply text: 2

Inquiry: Param item: CCNC(=O)Nc1cc2c(-c3ccnc(C)c3)ccc(CNC(=O)OCCOC)c2cn1
Reply text: 0.5

Inquiry: Now the compound CCNC(=O)Nc1cc2c(-c3ccncc3)ccc(CNC(=O)OCCCN(C)C)c2cn1.Cl
Reply text: 8

Inquiry: Next compound: CCNC(=O)Nc1cc2c(-c3ccnc(C)c3)ccc(CN(C)C(=O)OCCOC)c2cn1
Reply text: 8

Inquiry: Same again, this time with C#CCOC(=O)N(C)Cc1cccc2cc(NC(=O)NCC)ncc12
Reply text: 8

* * *

Exercise: state measured MIC for each of the compounds provided.
system: S. pneumoniae ATCC 49619; assay: Minimal inhibitory concentration (MIC) by broth microdilution (CLSI M7-A7); assay type: cell-based, Streptococcus pneumoniae; details: Streptococcus pneumoniae, ATCC49619; cation-adjusted Mueller Hinton Broth supplemented with 3% (v/v) lysed horse blood; microdilution method
# unit: µg/mL | format: bare number

Inquiry: Request: MIC, test system S. pneumoniae ATCC 49619, entry CCNC(=O)Nc1cc2cccc(CNC(=O)OCc3cccnc3)c2cn1.Cl
Reply text: 4

Inquiry: Follow-up item: CCNC(=O)Nc1cc2c(-c3ccncc3)ccc(CNC(=O)CCCN3CCOCC3)c2cn1
Reply text: 4

Inquiry: Same lookup for CCNC(=O)Nc1cc2c(-c3ccnc(C)c3)ccc(CN(C)C(=O)OC)c2cn1 , please.
Reply text: 8

Inquiry: Same lookup for CCNC(=O)Nc1cc2cccc(CNC(=O)c3ccncc3)c2cn1 , please.
Reply text: 2

Inquiry: Same lookup for C#CCOC(=O)NCc1ccc(-c2cccc(C(N)=O)c2)c2cc(NC(=O)NCC)ncc12.Cl , please.
Reply text: 2

Inquiry: What do we get for C#CCC(=O)NCc1cccc2cc(NC(=O)NCC)ncc12 ?
Reply text: 2

Inquiry: Further, for C#CCOC(=O)NCc1ccc(-c2ccnc(C#N)c2)c2cc(NC(=O)NCC)ncc12 ?
Reply text: 1

Inquiry: Lookup C#CCOC(=O)NCc1ccc(-c2ccccc2O)c2cc(NC(=O)NCC)ncc12.Cl
Reply text: 1

Inquiry: And for CCNC(=O)Nc1cc2cccc(CNC(C)=O)c2cn1 ?
Reply text: 4
